For each entry below, report its pIC50 value.
# System: Hs-578T
# Measurement protocol: Cytotoxicity against human Hs578T cells after 72 hrs by MTT assay
# Format: functional, cell-based
In plain terms, pIC50 is the concentration in mol/L turned into minus its base-10 logarithm.

Prompt: Sample COc1cc(C(=O)Nc2c(C(=O)c3cccs3)[nH]c3cc(Cl)ccc23)cc(OC)c1OC — what was its pIC50?
Completion: 4.31

Prompt: Sample COc1cc(C(=O)Nc2c(C(=O)c3ccccc3)[nH]c3cc(C)ccc23)cc(OC)c1OC — what was its pIC50?
Completion: 4.31

Prompt: Sample COc1cc(C(=O)Nc2c(C(=O)c3ccc(C)cc3)[nH]c3ccccc23)cc(OC)c1OC — what was its pIC50?
Completion: 4.30
